Test system: Pseudomonas aeruginosa
Run Description: Antibacterial activity against Pseudomonas aeruginosa ATCC 25619 at 5 mg after 24 hrs by agar well diffusion assay
Format: functional
Run Conditions: ATCC 25619, 24 h, read-out: DIZ
Recorded Metric: zone of inhibition at 5000 µg/disc (mm)
State the answer as a number, implicitly in mm.

{"Compound": "N=C1C(=S)N(c2cc(Cl)cc(Cl)c2)C(=O)N1c1cc(Cl)c(Cl)cc1Cl", "Study Target": "Pseudomonas aeruginosa", "Obs Value": 18}
{"Compound": "CC[C@H]1OC(=O)[C@H](C)[C@@H](O[C@H]2C[C@@](C)(OC)[C@@H](O)[C@H](C)O2)[C@H](C)[C@@H](O[C@@H]2O[C@H](C)C[C@H](N(C)C)[C@H]2O)[C@](C)(O)C[C@@H](C)C(=O)[C@H](C)[C@@H](O)[C@]1(C)O [ERYTHROMYCIN]", "Study Target": "Pseudomonas aeruginosa", "Obs Value": 30}
{"Compound": "N=C1C(=S)N(c2cc(Cl)cc(Cl)c2)C(=O)N1c1c(Cl)cccc1Cl", "Study Target": "Pseudomonas aeruginosa", "Obs Value": 17}
{"Compound": "Cc1ccc(F)cc1N1C(=N)C(=S)N(c2ccc(Br)cc2)C1=O", "Study Target": "Pseudomonas aeruginosa", "Obs Value": 21}
{"Compound": "COc1ccc(OC)c(N2C(=O)N(c3ccc4c(c3)Cc3ccccc3-4)C(=N)C2=S)c1", "Study Target": "Pseudomonas aeruginosa", "Obs Value": 0}

Item COc1ccc(OC)c(N2C(=O)N(c3ccc(C)cc3)C(=N)C2=S)c1 has what recorded zone of inhibition at 5000 µg/disc? 14

Record request: zone of inhibition at 5000 µg/disc value, item Cc1ccc(N2C(=N)C(=S)N(c3cc(Cl)cc(Cl)c3)C2=O)cc1 16

Look up zone of inhibition at 5000 µg/disc: COc1ccc(N2C(=N)C(=S)N(c3cc(OC)ccc3OC)C2=O)cc1 26

Field request: zone of inhibition at 5000 µg/disc | item: COc1ccc(OC)c(N2C(=O)N(c3ccc(SC)cc3)C(=N)C2=S)c1 25

Name the recorded zone of inhibition at 5000 µg/disc for N=C1C(=S)N(c2cc(Cl)cc(Cl)c2)C(=O)N1c1ccc(Cl)c(C(F)(F)F)c1 . 21

----------
Run Description: Cytotoxicity against human HepG2 cells assessed as decrease in cell viability after 48 hrs by SRB assay
Type: functional, cell-based
I'd appreciate it if you marked entries Met when IC50 is lower than 0.03 µg and Not met when it is not.

Please review the entries below; each comes with its answer.
{"Record Smiles": "COc1ccc(OC)c(N2C(=O)N(c3ccc(SC)cc3)C(=N)C2=S)c1", "Class Assignment": "Met"}
{"Record Smiles": "COc1ccc(OC)c(N2C(=O)N(c3ccc4c(c3)Cc3ccccc3-4)C(=N)C2=S)c1", "Class Assignment": "Not met"}
{"Record Smiles": "Cc1ccc(N2C(=N)C(=S)N(c3cc(Cl)cc(Cl)c3)C2=O)cc1", "Class Assignment": "Met"}

Input COc1ccc(OC)c(N2C(=O)N(c3ccc(C)cc3)C(=N)C2=S)c1 ; condition: IC50 strictly below 0.03 µg. Does it hold? Not met

In the record for CSc1ccc(N2C(=N)C(=S)N(c3cc(Cl)cc(Cl)c3)C2=O)cc1 , is IC50 less than 0.03 µg? Met

Strictly below 0.03 µg: is that where IC50 of COc1cccc2c1C(=O)c1c(O)c3c(c(O)c1C2=O)C[C@@](O)(C(=O)CO)C[C@@H]3O[C@H]1C[C@H](N)[C@H](O)[C@H](C)O1 sits? Met
